Target: BRG-1 (Homo sapiens, UniProt P51532)
Sequence (P51532 whole entry): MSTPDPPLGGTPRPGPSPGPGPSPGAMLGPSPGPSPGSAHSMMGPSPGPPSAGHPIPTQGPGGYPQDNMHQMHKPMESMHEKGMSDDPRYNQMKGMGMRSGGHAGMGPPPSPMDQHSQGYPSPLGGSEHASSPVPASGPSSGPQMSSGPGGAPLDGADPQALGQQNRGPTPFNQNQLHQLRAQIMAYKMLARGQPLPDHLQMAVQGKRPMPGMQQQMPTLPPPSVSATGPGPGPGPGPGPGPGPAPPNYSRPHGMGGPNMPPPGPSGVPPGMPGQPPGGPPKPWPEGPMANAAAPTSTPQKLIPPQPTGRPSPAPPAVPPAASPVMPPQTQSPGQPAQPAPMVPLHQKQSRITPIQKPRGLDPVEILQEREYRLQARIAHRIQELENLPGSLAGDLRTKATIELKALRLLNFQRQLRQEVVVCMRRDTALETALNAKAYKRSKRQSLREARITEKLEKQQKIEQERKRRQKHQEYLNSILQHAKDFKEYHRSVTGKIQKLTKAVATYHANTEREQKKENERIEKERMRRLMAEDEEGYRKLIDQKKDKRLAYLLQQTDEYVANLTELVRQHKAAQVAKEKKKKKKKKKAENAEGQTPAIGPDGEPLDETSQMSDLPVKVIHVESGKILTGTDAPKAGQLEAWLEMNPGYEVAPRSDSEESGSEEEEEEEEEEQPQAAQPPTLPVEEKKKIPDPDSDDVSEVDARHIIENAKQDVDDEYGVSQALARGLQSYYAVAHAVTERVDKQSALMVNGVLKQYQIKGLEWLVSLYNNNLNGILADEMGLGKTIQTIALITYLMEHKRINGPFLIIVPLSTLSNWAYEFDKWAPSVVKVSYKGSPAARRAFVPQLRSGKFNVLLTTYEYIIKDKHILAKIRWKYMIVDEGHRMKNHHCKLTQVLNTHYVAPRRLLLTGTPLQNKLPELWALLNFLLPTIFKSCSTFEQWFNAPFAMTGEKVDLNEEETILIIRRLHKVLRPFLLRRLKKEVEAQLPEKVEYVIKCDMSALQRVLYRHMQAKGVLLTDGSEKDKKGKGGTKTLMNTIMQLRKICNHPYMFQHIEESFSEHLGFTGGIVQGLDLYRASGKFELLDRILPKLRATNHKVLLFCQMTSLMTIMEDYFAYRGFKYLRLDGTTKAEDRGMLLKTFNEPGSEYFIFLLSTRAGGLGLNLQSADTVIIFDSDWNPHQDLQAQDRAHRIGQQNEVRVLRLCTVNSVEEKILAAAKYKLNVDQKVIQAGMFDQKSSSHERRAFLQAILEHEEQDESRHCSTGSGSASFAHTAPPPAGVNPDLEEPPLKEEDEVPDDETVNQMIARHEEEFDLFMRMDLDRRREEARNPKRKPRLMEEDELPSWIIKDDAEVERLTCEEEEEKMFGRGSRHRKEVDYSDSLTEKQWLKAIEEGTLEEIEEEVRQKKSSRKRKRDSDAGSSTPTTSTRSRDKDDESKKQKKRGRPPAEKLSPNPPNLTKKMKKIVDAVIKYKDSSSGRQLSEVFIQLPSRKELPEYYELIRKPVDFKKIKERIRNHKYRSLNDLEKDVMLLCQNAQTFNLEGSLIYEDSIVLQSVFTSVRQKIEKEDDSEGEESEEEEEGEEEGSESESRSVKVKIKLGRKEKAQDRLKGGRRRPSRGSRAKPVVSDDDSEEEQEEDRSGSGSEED
Assay: ATPase catalytic activity of BRG-1 (ADP-Glo in vitro biochemical assay)
Settings: Table 6
Some compounds, each annotated with its measured BRG1 Max % Inhibition.

Consider the following illustrative entries.
- compound: "Nc1ccc(C(=O)NCC(=O)Nc2nc(-c3ccc4cc[nH]c(=O)c4c3)cs2)cc1"
  BRG1 Max % Inhibition: ">95%"
- compound: "NCC1CCC(c2cccc(-c3csc(NC(=O)CNC(=O)c4ccc(N)cc4)n3)c2)CC1 (stereo not shown)"
  BRG1 Max % Inhibition: ">95%"
- compound: "Nc1ccc(C(=O)NCC(=O)Nc2nc(C3CCCN(c4cccnc4)C3)cs2)cc1 (stereo not shown)"
  BRG1 Max % Inhibition: ">90%"

# context switch: different compound, same BRG1 Max % Inhibition
Name the reported BRG1 Max % Inhibition value associated with the compound "CN(CC(=O)O)c1cc(-c2cccc(-c3csc(NC(=O)CNC(=O)c4ccc(N)cc4)n3)c2)ccn1" >95%

---

Molecular target: BRG-1 (Homo sapiens, UniProt P51532)
Assay: ATPase catalytic activity of BRG-1 (ADP-Glo in vitro biochemical assay)
Conditions: Table 6
reported-metric: BRG1 Max % Inhibition

// below: answered molecules
- molecule: "Nc1ccc(C(=O)NCC(=O)Nc2nc(-c3cccc(-c4ccnc(N5CCCC(N)C5)c4)c3)cs2)cc1 (centres unmarked)"
  measured-result: ">80%"
- molecule: "COC(C)(C)Cn1ccc(-c2cccc(-c3csc(NC(=O)CNC(=O)c4ccc(N)cc4)n3)c2)n1"
  measured-result: ">80%"

// below: BRG1 Max % Inhibition requested for another molecule
What measured BRG1 Max % Inhibition is associated with "N#Cc1ccc(-c2cccc(-c3csc(NC(=O)CNC(=O)c4ccc(N)cc4)n3)c2)cc1" on BRG-1 (Homo sapiens, UniProt P51532)? >80%

---

Target: BRG-1 (Homo sapiens, UniProt P51532)
Assay: ATPase catalytic activity of BRG-1 (ADP-Glo in vitro biochemical assay)
Details: Table 6
As shown below, each of these compounds has a reported BRG1 Max % Inhibition value.

In the examples that follow, each entry is paired with its recorded BRG1 Max % Inhibition.
- compound: "CN(C)CCn1ccc2ccc(-c3csc(NC(=O)CNC(=O)c4ccc(N)cc4)n3)cc2c1=O"
  reported-metric: "BRG1 Max % Inhibition"
  measured-result: ">95%"
- compound: "NCC1CC=C(c2cccc(-c3csc(NC(=O)CNC(=O)c4ccc(N)cc4)n3)c2)CC1 (stereo not shown)"
  reported-metric: "BRG1 Max % Inhibition"
  measured-result: ">95%"
- compound: "NCc1cc(-c2cccc(-c3csc(NC(=O)CNC(=O)c4ccc(N)cc4)n3)c2)ccn1"
  reported-metric: "BRG1 Max % Inhibition"
  measured-result: ">95%"
- compound: "NCCn1ccc2ccc(-c3csc(NC(=O)CNC(=O)c4ccc(N)cc4)n3)cc2c1=O"
  reported-metric: "BRG1 Max % Inhibition"
  measured-result: ">95%"
- compound: "Nc1ccc(C(=O)NCC(=O)Nc2nc(-c3cccc(-c4ccn(CC(F)(F)F)n4)c3)cs2)cc1"
  reported-metric: "BRG1 Max % Inhibition"
  measured-result: ">80%"
- compound: "Nc1ccc(C(=O)NCC(=O)Nc2nc(-c3cccc(C4CCCCO4)c3)cs2)cc1 (stereo not shown)"
  reported-metric: "BRG1 Max % Inhibition"
  measured-result: ">80%"

GET /values?readout=BRG1 Max % Inhibition&item= "Nc1ccc(C(=O)NCC(=O)Nc2nc(-c3cccc(-c4ccnc(N5CCNCC5)c4)c3)cs2)cc1" >95%

Then "CC(C)c1cc(-c2cccc(-c3csc(NC(=O)CNC(=O)c4ccc(N)cc4)n3)c2)ccn1" ? >95%

One more compound: "CNC(=O)C(C)(C)n1ccc(-c2cccc(-c3csc(NC(=O)CNC(=O)c4ccc(N)cc4)n3)c2)n1" >95%

Try this compound too: "CC(=O)NCc1cccc(-c2cccc(-c3csc(NC(=O)CNC(=O)c4ccc(N)cc4)n3)c2)c1" >95%
